Reference for the values: patent US20240383900A1

assayed.system: Human CDK12 wt/CycK (Homo sapiens (Human))
Sequence (Q9NYV4 whole entry): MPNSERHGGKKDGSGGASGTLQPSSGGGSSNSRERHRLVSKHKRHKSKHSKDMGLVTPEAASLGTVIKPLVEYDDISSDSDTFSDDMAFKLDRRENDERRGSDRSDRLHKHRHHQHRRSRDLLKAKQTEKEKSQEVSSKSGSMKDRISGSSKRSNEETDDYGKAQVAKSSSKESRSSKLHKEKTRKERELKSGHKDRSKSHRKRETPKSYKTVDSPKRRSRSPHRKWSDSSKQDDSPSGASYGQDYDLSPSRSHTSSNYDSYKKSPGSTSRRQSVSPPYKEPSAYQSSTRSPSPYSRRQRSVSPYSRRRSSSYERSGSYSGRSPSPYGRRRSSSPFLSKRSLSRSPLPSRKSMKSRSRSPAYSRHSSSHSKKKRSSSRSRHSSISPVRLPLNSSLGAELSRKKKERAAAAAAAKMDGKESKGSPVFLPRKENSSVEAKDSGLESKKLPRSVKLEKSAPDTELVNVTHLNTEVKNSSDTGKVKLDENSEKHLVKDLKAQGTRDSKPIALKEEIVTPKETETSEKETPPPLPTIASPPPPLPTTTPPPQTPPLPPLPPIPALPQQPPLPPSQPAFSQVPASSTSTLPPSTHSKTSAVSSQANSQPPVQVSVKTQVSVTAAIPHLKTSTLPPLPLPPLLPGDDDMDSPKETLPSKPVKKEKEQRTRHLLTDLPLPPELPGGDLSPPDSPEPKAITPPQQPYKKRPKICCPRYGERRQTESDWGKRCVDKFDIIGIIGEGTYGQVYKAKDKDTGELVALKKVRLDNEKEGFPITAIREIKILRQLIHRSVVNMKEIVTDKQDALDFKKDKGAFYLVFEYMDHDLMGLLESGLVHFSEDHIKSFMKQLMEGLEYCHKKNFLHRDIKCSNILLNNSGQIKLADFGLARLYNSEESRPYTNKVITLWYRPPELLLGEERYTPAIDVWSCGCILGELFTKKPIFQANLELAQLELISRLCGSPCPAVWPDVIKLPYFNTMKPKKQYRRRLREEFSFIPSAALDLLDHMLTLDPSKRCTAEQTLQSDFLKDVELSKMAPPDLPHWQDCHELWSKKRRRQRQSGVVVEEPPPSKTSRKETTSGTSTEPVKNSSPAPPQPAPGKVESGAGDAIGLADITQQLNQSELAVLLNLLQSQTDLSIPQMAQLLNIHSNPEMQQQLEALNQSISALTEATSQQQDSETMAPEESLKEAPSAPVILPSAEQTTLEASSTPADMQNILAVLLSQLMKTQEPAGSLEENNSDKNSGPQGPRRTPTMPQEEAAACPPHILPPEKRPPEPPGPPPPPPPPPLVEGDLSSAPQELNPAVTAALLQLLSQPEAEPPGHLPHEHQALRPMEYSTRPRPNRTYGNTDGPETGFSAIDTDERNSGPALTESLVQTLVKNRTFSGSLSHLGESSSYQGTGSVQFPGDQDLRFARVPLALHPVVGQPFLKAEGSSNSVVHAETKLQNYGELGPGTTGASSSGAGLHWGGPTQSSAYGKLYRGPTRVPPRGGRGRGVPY
Sequence (O75909 whole entry partner): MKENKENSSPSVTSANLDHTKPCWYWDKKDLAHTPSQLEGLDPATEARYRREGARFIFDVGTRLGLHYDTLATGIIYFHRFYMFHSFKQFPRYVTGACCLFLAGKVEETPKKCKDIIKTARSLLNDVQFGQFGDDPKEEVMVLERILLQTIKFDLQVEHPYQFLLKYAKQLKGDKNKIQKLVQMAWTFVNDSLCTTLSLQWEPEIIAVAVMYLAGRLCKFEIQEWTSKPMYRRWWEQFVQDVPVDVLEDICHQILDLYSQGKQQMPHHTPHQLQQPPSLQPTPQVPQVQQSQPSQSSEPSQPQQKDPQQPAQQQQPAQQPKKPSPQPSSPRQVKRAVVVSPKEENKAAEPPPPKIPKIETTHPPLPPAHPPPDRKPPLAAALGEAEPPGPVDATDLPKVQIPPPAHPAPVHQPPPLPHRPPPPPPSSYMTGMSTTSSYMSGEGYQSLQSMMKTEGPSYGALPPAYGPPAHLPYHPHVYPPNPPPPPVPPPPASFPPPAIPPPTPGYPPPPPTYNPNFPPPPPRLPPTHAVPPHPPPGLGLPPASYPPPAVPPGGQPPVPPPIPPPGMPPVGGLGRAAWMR
experiment: Radiometric protein kinase assay (33PanQinase Activity Assay), CDK12
Type: biochemical
experimental.context: ATP 0.3 μM; read-out: CDK12 IC50
Recorded pIC50 values for a group of molecules are listed next.
Here pIC50 is given on a logarithmic scale as minus log10 of the concentration in mol/L.

See these solved cases before continuing.
Cn1cc(-c2ccccn2)nc1CNc1cc(NC[C@H]2CCNC[C@@H]2O)nc2c(C3CC3)cnn12
8.22
Cc1cccnc1-c1ccc(CNc2cc(NC[C@H]3CCNC[C@@H]3O)nc3c(C(C)C)cnn23)cc1
6.73

The measured pIC50 associated with O[C@H]1CNCC[C@@H]1CNc1cc(NCc2ccc(-c3ccccn3)cc2)n2ncc(C3CC3)c2n1 reads 7.29

====

assayed.system: Human CDK7/CycH/MAT1 (Homo sapiens (Human))
Sequence (P50613 whole entry): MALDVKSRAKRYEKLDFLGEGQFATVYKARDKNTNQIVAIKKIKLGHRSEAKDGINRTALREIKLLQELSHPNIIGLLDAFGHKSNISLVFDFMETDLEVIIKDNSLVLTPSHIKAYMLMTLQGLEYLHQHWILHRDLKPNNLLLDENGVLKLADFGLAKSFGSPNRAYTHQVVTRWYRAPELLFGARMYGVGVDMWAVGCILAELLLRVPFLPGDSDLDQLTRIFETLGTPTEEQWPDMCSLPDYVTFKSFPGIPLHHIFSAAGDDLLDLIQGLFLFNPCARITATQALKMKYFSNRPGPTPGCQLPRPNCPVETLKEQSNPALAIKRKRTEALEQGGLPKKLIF
Sequence (P51946 whole entry partner): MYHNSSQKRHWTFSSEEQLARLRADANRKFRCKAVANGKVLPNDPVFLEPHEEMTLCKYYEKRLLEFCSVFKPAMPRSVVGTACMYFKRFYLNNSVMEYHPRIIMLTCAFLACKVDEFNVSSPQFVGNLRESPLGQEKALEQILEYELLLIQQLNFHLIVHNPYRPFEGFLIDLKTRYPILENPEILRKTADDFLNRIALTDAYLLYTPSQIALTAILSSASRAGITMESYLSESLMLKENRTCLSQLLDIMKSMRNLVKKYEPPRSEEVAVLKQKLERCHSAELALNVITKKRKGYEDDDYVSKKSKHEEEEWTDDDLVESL
Sequence (P51948 whole entry partner): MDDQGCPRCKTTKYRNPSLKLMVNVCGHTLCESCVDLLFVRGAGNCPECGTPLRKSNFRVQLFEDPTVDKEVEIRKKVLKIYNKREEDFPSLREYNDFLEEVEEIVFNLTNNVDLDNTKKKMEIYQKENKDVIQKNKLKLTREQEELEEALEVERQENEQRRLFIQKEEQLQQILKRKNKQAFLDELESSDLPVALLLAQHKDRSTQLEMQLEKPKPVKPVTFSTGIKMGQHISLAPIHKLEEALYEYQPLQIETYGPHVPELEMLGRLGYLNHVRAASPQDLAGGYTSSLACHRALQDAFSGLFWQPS
experiment: Radiometric protein kinase assay (33PanQinase Activity Assay), CDK7
experimental.context: ATP 3 μM
# label = MET if IC50 < 1000 nM else NOT MET

CC(=O)N1CCC(CNc2cc(NCc3ccc(-c4ccccn4)cc3)n3ncc(C4CC4)c3n2)CC1
NOT MET

# strict comparison: is reported IC50 < 1000 nM? input = Cc1nccn1-c1ccc(CNc2cc(NC[C@H]3CCNC[C@@H]3O)nc3c(C4CC4)cnn23)cc1
MET

# strict comparison: is reported IC50 < 1000 nM? input = CC(C)c1cnn2c(NCc3ccc(-c4ncccc4F)cc3)cc(NC[C@H]3CCNC[C@@H]3O)nc12
MET

# strict comparison: is reported IC50 < 1000 nM? input = O[C@H]1CNCC[C@@H]1CNc1cc(NCc2ccc(-c3ccccc3)nc2)n2ncc(C3CC3)c2n1
MET

# strict comparison: is reported IC50 < 1000 nM? input = Cc1cc(CNc2cc(NC[C@H]3CCNC[C@@H]3O)nc3c(C(C)C)cnn23)ccc1-c1ccccn1
MET

# strict comparison: is reported IC50 < 1000 nM? input = O[C@H]1CNCC[C@@H]1CNc1cc(NCc2ccc(-c3ccccc3)cc2)n2ncc(Cl)c2n1
MET

# strict comparison: is reported IC50 < 1000 nM? input = O[C@H]1CNCC[C@@H]1CNc1cc(NCc2ccc(-c3ccccn3)cn2)n2ncc(C3CC3)c2n1
MET

# strict comparison: is reported IC50 < 1000 nM? input = c1ccc(-c2ccc(CNc3cc(N[C@H]4CCNC4)nc4c(C5CC5)cnn34)cc2)nc1
MET

====

assayed.system: Human CDK12 wt/CycK (Homo sapiens (Human))
experiment: Radiometric protein kinase assay (33PanQinase Activity Assay), CDK12
Format: biochemical
experimental.context: read-out: CKD12 Biochemical Potency IC50
Recorded IC50 values for a group of compounds are listed next.
Reply with just the number (in nM).

The measured IC50 associated with F[C@@H]1CNC[C@H]1Oc1cc(NCc2ccc(-c3ccccn3)cc2)n2ncc(C3CC3)c2n1 reads 33

The measured IC50 associated with Cc1cc(CNc2cc(NC[C@H]3CCNC[C@@H]3O)nc3c(C(C)C)cnn23)ccc1-c1ccccn1 reads 160

The measured IC50 associated with FC1(F)CNCCC1CNc1cc(NCc2ccc(-c3ccccn3)cc2)n2ncc(C3CC3)c2n1 (stereo not shown) reads 189

The measured IC50 associated with CC(C)c1cnn2c(NCc3ccc(-c4cccnc4)cc3)cc(NC[C@H]3CCNC[C@@H]3O)nc12 reads 47

The measured IC50 associated with N#Cc1cnn2c(NCc3ccc(-c4ccccc4)cc3)cc(NC[C@H]3CCNC[C@@H]3O)nc12 reads 57

The measured IC50 associated with O[C@H]1CNCC[C@@H]1CNc1cc(NCc2ccc(-c3ccc(F)cn3)cc2)n2ncc(C3CC3)c2n1 reads 70

The measured IC50 associated with O[C@H]1CNCC[C@@H]1CNc1cc(NCc2ccc(-c3ccccc3)cc2)n2ncc(C3CC3)c2n1 reads 158
